# Tested on: Calu-3
# experimental_details: cell viability relative to DMSO; higher = less toxic
# conditions_used: 72 h; 1 nM
recorded_endpoint: cell viability (%)
Value expressed in %; do not type the unit.

*Q* Give the reported cell viability for this compound. Cn1ccc2cc(NC(=O)Nc3cccnc3)ccc21
*A* 108

*Q* Give the reported cell viability for this compound. Cc1cc2c(C(N)=O)cccc2n1-c1nc2c(c(NCc3ccccc3)n1)COCC2
*A* 101

*Q* Give the reported cell viability for this compound. CC1(CN2CCC(n3c(=O)[nH]c4ccccc43)CC2)OCc2ccccc2-n2cccc21 (stereo not given) [zaldaride]
*A* 86.3

*Q* Give the reported cell viability for this compound. CC(=O)NC1CCSC1=O (stereo not given)
*A* 103

*Q* Give the reported cell viability for this compound. CC1(c2ccccc2)OC(C(=O)O)=CC1=O (stereo not given)
*A* 94.9

*Q* Give the reported cell viability for this compound. CSCC[C@H](NC(=O)[C@H](Cc1ccccc1)NC(=O)CNC(=O)CNC(=O)[C@@H](N)Cc1ccc(O)cc1)C(=O)O
*A* 102

*Q* Give the reported cell viability for this compound. CN1CCC[C@@H]1CCO[C@](C)(c1ccccc1)c1ccc(Cl)cc1
*A* 96.8
